This collection of values is drawn from the supplement of paper PMC10065799.

- SYSTEM_NAME: MERTK (UniProt Q12866)
- Sequence (Q12866 whole entry, looked up): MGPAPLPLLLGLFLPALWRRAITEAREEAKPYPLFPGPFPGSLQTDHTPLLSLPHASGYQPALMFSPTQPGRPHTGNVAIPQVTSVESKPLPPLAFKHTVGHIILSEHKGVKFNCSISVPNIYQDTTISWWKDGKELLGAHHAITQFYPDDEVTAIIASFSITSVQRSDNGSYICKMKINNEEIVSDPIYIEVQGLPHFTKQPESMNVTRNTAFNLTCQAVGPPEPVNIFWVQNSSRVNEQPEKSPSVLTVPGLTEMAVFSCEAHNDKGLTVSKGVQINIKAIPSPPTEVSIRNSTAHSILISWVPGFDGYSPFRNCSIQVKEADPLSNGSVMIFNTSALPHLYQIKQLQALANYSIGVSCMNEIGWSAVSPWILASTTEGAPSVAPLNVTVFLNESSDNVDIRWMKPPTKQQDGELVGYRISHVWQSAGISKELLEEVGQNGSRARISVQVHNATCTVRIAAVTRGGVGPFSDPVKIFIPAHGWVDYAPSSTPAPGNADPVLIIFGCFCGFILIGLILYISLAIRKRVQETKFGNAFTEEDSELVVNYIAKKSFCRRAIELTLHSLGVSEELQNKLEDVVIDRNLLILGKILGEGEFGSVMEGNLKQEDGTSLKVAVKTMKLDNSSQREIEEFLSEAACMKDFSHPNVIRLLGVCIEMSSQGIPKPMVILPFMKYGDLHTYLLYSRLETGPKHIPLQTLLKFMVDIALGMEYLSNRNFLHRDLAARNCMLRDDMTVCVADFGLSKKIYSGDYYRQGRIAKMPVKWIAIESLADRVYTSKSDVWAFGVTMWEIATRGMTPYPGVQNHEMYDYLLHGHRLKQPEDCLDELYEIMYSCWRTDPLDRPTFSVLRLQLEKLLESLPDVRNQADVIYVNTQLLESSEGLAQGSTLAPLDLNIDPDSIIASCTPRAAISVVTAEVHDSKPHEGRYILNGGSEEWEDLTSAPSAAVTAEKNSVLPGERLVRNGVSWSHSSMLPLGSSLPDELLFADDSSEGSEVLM
- ASSAY_METHOD_TEXT: phosphorylation enrichment, bacterial display (enrichment ratio); higher = better substrate or ligand; peptides without Tyr show the background;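 note: 11-residue human phosphosite peptides and single-mutation variants displayed on the E. coli surface, counted by deep sequencing, each peptide's frequency after selection divided by its frequency in the unselected input library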;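 note: frequency after pTyr selection over input frequency; kinase dosed for 20-30% of maximal phosphorylation in three min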
Mark False for phosphorylation enrichment values under 0.5, and True for everything at or above.

- SEQUENCE_CODE: "HDKEFYSVHNK [MET_Y1235_Y1230H_YF]"
  LABEL: "False"
- SEQUENCE_CODE: "IVAEFYDNLPH [DEGS1_Y284_A280V_YF]"
  LABEL: "True"
- SEQUENCE_CODE: "VEDQYYCVDCY [FHL1_Y208]"
  LABEL: "True"
- SEQUENCE_CODE: "NWGKKYPTCNS [PTPRZ1_Y53]"
  LABEL: "False"
- SEQUENCE_CODE: "EHTTLYSDNST [KANSL1_Y223_N225D]"
  LABEL: "False"
- SEQUENCE_CODE: "GDKENYGLPQP [BUB1_Y538_N534D]"
  LABEL: "False"
- SEQUENCE_CODE: "DYYDLYGGEKL [PTPN11_Y66_F71L]"
  LABEL: "True"
- SEQUENCE_CODE: "LLREWYLQDPF [SIX3_Y225_YF]"
  LABEL: "True"
- SEQUENCE_CODE: "YCRHNYGVVES [HLA-DRB1_Y112]"
  LABEL: "True"
- SEQUENCE_CODE: "KKYPDYIQIAM [SGMS2_Y59]"
  LABEL: "False"
- SEQUENCE_CODE: "ADSLRYIFPKL [EIF2B3_Y92_YF]"
  LABEL: "False"
- SEQUENCE_CODE: "MEIHAYLKLLE [LMNA_Y376_R377L]"
  LABEL: "False"
- SEQUENCE_CODE: "LVVFEYMRHGD [NTRK1_Y591_M587V]"
  LABEL: "False"
- SEQUENCE_CODE: "INITIYGKTFH [EFHC1_Y177_R182H]"
  LABEL: "False"
- SEQUENCE_CODE: "FETSHYLASPD [CTNND2_Y1217_P1218L_YF]"
  LABEL: "True"
- SEQUENCE_CODE: "CPFNLYAAQLS [HGD_Y40_E42A_YF]"
  LABEL: "True"
- SEQUENCE_CODE: "PGLSSYGVPGS [FLNB_Y1530_A1534G]"
  LABEL: "True"
- SEQUENCE_CODE: "RNFVRYVQGLK [VWF_Y1400]"
  LABEL: "False"
- SEQUENCE_CODE: "PVQAAYQKVEA [HBB_Y131_V135E]"
  LABEL: "True"
- SEQUENCE_CODE: "LSDGPYSNSFE [EPOR_Y485_P488S_YF]"
  LABEL: "True"
- SEQUENCE_CODE: "EFISENCGEII [EZH2_Y641_Y641N]"
  LABEL: "False"
- SEQUENCE_CODE: "KGSLPYNLILD [PKD1L2_Y406]"
  LABEL: "False"
- SEQUENCE_CODE: "RRNEIYEIKVD [LGR5_Y387_H383R]"
  LABEL: "False"
- SEQUENCE_CODE: "ETCLAYMEKRI [TEKT1_Y118_R119M]"
  LABEL: "False"
- SEQUENCE_CODE: "GHNDVYILEHV [GRIN2A_Y1423_S1425L]"
  LABEL: "False"
- SEQUENCE_CODE: "KQRSDYARELE [MYH3_Y1140]"
  LABEL: "False"
- SEQUENCE_CODE: "RAIELYNDKEK [OTULIN_Y244]"
  LABEL: "True"
- SEQUENCE_CODE: "GGFNNYGFGND [HNRNPH3_Y159_YF]"
  LABEL: "False"
- SEQUENCE_CODE: "TRSFKYLLLSM [NF1_Y491_YF]"
  LABEL: "False"
- SEQUENCE_CODE: "PELINCHQHNS [BTK_Y361_Y361C]"
  LABEL: "True"
- SEQUENCE_CODE: "FQLPFYNMVPS [BMPR1A_Y458_YF]"
  LABEL: "True"
- SEQUENCE_CODE: "CKSVHYDLVFL [COL22A1_Y37]"
  LABEL: "True"
- SEQUENCE_CODE: "GLIPAYHWVIM [NMNAT1_Y64_R66W]"
  LABEL: "True"
- SEQUENCE_CODE: "RRAKGYPIDLF [ITGB2_Y125_YF]"
  LABEL: "True"
- SEQUENCE_CODE: "SDFSSYARTSI [TERT_Y949_YF]"
  LABEL: "False"
- SEQUENCE_CODE: "QSHKVYVQHLL [POR_Y604]"
  LABEL: "True"
- SEQUENCE_CODE: "HKNNNYEPNLF [BRCA2_Y57]"
  LABEL: "True"
- SEQUENCE_CODE: "KRLDGYVLEGR [IGSF9_Y656]"
  LABEL: "False"
- SEQUENCE_CODE: "SFHSSYSEIKD [DCLRE1C_Y322]"
  LABEL: "True"
- SEQUENCE_CODE: "MCDKEYFSVHN [MET_Y1234_Y1230C_YF]"
  LABEL: "False"
- SEQUENCE_CODE: "VDSIEYEVASQ [SLC7A7_Y7_T5I]"
  LABEL: "True"
- SEQUENCE_CODE: "FRPPFYHRDCM [HGD_Y334_N337D_YF]"
  LABEL: "False"
- SEQUENCE_CODE: "FDDIACIRKTL [PIK3CA_Y1021_Y1021C]"
  LABEL: "False"

###

- SYSTEM_NAME: EPHB1 (UniProt P54762)
- Sequence (P54762 whole entry, looked up): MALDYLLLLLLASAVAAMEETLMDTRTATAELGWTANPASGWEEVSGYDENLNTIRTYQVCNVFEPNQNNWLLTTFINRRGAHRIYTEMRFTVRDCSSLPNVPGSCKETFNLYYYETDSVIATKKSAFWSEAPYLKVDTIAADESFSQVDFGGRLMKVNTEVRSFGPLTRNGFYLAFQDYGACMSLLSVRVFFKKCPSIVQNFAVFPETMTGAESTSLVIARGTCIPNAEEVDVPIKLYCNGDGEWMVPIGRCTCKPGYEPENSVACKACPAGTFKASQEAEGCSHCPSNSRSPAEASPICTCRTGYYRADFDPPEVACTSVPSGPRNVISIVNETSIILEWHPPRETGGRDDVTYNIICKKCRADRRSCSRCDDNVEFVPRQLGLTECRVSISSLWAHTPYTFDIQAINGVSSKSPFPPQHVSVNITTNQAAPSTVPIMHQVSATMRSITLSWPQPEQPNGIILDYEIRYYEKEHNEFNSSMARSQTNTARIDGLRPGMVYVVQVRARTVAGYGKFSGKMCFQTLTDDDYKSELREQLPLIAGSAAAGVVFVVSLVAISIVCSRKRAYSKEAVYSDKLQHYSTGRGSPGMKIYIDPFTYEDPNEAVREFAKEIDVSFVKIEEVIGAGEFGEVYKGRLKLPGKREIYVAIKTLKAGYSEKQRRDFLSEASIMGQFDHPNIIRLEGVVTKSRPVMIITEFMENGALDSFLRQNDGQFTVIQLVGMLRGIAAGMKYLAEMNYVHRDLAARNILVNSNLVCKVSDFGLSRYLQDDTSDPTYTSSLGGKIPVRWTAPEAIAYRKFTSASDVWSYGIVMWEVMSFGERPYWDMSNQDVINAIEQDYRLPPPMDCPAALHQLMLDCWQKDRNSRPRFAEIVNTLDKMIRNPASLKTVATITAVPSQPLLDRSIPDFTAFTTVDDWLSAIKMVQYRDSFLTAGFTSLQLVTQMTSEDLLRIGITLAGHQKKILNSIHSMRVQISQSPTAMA
- ASSAY_METHOD_TEXT: phosphorylation enrichment, bacterial display (enrichment ratio); higher = better substrate or ligand; peptides without Tyr show the background
Listed sequences paired with reported phosphorylation enrichment

- SEQUENCE_CODE: "ENPAKYDDIKK [GAPDH_Y255_K251N]"
  phosphorylation enrichment: 0.608
- SEQUENCE_CODE: "GTPVMYTYDEY [COL10A1_Y623]"
  phosphorylation enrichment: 0.708
- SEQUENCE_CODE: "SVFNNYIQTLG [CTNND1_Y174_S171F]"
  phosphorylation enrichment: 0.835
- SEQUENCE_CODE: "PADCRYYAFPQ [GAMT_Y222]"
  phosphorylation enrichment: 12.1
- SEQUENCE_CODE: "RIPFRYPKEFQ [IDS_Y234_H229R]"
  phosphorylation enrichment: 0.571
- SEQUENCE_CODE: "KKMKCYHVGKV [HARS2_Y151_R150C]"
  phosphorylation enrichment: 0.444
- SEQUENCE_CODE: "GKSHIYFWTLE [EML2_Y230]"
  phosphorylation enrichment: 0.588
- SEQUENCE_CODE: "HNQDGYSFLSR [LDLR_Y845_P848L_YF]"
  phosphorylation enrichment: 0.837
- SEQUENCE_CODE: "LARDMDDKEYY [MET_Y1230_Y1230D]"
  phosphorylation enrichment: 0.828
- SEQUENCE_CODE: "NFATLHLKIFH [PDE6B_Y219_Y219H_YF]"
  phosphorylation enrichment: 0.607
- SEQUENCE_CODE: "MARDIYRASFF [ALK_Y1278_YF]"
  phosphorylation enrichment: 0.425

###

- SYSTEM_NAME: MERTK (UniProt Q12866)
- ASSAY_METHOD_TEXT: phosphorylation enrichment, bacterial display (enrichment ratio); higher = better substrate or ligand; peptides without Tyr show the background

- SEQUENCE_CODE: "YRAPGYREVVI [TNS2_Y673]"
  phosphorylation enrichment: 0.403
- SEQUENCE_CODE: "LFMGDYVDRGF [PPP2CA_Y86_YF]"
  phosphorylation enrichment: 0.396
- SEQUENCE_CODE: "STQAHYRLSAF [ADAMTS9_Y100_S96T]"
  phosphorylation enrichment: 0.409
- SEQUENCE_CODE: "FTYDPYSEEDP [IL2RB_Y387]"
  phosphorylation enrichment: 0.389
- SEQUENCE_CODE: "PESTLYRKFTT [NTRK1_Y701_I699T]"
  phosphorylation enrichment: 0.399

###

- SYSTEM_NAME: Fes (UniProt P07332)
- Sequence (P07332 whole entry, looked up): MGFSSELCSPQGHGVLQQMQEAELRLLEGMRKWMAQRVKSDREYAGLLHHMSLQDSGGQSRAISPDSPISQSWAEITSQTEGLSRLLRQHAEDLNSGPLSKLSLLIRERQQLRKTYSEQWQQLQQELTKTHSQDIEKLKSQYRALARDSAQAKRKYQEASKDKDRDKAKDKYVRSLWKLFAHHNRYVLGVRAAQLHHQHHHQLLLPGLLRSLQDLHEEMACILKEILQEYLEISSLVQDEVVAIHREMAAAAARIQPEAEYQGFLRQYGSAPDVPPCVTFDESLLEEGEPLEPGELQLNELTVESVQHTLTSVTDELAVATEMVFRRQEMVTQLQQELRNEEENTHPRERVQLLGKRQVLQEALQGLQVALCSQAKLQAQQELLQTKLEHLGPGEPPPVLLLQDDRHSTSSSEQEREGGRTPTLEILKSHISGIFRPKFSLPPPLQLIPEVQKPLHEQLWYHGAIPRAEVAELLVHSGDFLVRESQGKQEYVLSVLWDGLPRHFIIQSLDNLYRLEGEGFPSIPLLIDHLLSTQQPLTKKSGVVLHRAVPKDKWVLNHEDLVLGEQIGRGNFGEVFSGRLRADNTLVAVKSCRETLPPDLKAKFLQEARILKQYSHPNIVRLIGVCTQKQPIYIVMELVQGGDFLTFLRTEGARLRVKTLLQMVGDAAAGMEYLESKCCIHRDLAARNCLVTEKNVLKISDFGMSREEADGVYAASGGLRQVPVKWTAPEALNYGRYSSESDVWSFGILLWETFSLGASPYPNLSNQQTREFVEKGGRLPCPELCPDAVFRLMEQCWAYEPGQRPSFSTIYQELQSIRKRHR
- ASSAY_METHOD_TEXT: phosphorylation enrichment, bacterial display (enrichment ratio); higher = better substrate or ligand; peptides without Tyr show the background

- SEQUENCE_CODE: "MEIHAYLKLLE [LMNA_Y376_R377L]"
  phosphorylation enrichment: 1.8
- SEQUENCE_CODE: "SMAKFYASGIA [ACADSB_Y373_E376G_YF]"
  phosphorylation enrichment: 0.636
- SEQUENCE_CODE: "IYRASYVPFAA [RBM47_Y541_G538R]"
  phosphorylation enrichment: 0.897
- SEQUENCE_CODE: "HLVSEYQQFQD [TUBB3_Y422_D417H_YF]"
  phosphorylation enrichment: 0.974
- SEQUENCE_CODE: "AVPSLYASGRT [ACTA1_Y145_L142P]"
  phosphorylation enrichment: 0.57
- SEQUENCE_CODE: "FCGFSYDDIPD [TMEM230_Y112_R108C_YF]"
  phosphorylation enrichment: 1.27
- SEQUENCE_CODE: "ADRLEYSRTGL [MMUT_Y287_G284R]"
  phosphorylation enrichment: 0.599
- SEQUENCE_CODE: "SVVVPYEPTEV [TP53_Y220_P223T]"
  phosphorylation enrichment: 1.33
- SEQUENCE_CODE: "DMDATYRPMYS [JUP_Y701]"
  phosphorylation enrichment: 0.768
- SEQUENCE_CODE: "LPKEQYLYTKE [AFG3L2_Y614]"
  phosphorylation enrichment: 1.42
- SEQUENCE_CODE: "KRLDGYVLEGR [IGSF9_Y656]"
  phosphorylation enrichment: 0.67
- SEQUENCE_CODE: "MARDIYRASFF [ALK_Y1278_YF]"
  phosphorylation enrichment: 0.797
- SEQUENCE_CODE: "SVIKEYQIRQV [USH2A_Y3623_G3618S]"
  phosphorylation enrichment: 0.68
- SEQUENCE_CODE: "GIVEEYQLPYY [BMPR1A_Y453]"
  phosphorylation enrichment: 1.06
- SEQUENCE_CODE: "LGKLTYPVGFW [NTHL1_Y177_I176T]"
  phosphorylation enrichment: 2.06
- SEQUENCE_CODE: "AKLDIYKRKVE [VWA3B_Y918_N916D]"
  phosphorylation enrichment: 0.707
- SEQUENCE_CODE: "GTPVMYTYDEY [COL10A1_Y623]"
  phosphorylation enrichment: 1.09
- SEQUENCE_CODE: "FGYPGYQSKHY [TIMP3_Y177]"
  phosphorylation enrichment: 0.8
- SEQUENCE_CODE: "LESTLYESSVV [TRPV4_Y91]"
  phosphorylation enrichment: 2.34
- SEQUENCE_CODE: "THQKSYQPGRK [CEFIP_Y210_N208K]"
  phosphorylation enrichment: 0.472
- SEQUENCE_CODE: "DVFLKYLNFAT [PDE6B_Y212]"
  phosphorylation enrichment: 1.29
- SEQUENCE_CODE: "QLQQAYQEAFE [YWHAZ_Y149_S145L]"
  phosphorylation enrichment: 2.69
- SEQUENCE_CODE: "LVGTPYWMAPE [PAK5_Y608]"
  phosphorylation enrichment: 1.15
- SEQUENCE_CODE: "FQLPFYNMVPS [BMPR1A_Y458_YF]"
  phosphorylation enrichment: 0.811
- SEQUENCE_CODE: "PNKAVYTKMMT [G6PD_Y401_E398K]"
  phosphorylation enrichment: 0.562
- SEQUENCE_CODE: "GEETDYTPVWC [UROD_Y30]"
  phosphorylation enrichment: 1.43
- SEQUENCE_CODE: "KKLAEYGPQGR [CLCA1_Y147]"
  phosphorylation enrichment: 0.519
